Tested on: plants
Assay: Test D pre-emergence, other plants of Tables D1 and D3
Type: in vivo
Conditions: pre-emergence, rate 30, 20 DAA, 100=total damage, 0=no damage
Each item that follows carries a reported damage to plant, VERPE.
Response field accepts a number only; no unit should be typed.

Solved entries:
INSERT INTO assay_data (compound, reported_property, numeric_readout) VALUES
  ('COc1c(F)cccc1NC(=O)C1C(=O)N(C)CC1c1cc(C(F)(F)F)n(C)n1 (racemic)', 'damage to plant, VERPE', 0),
  ('CN1CC(c2cc(C(F)(F)F)n(C)n2)C(C(=O)Nc2ccc(F)cc2F)C1=O (racemic)', 'damage to plant, VERPE', 0),
  ('CN1CC(c2cc(C(F)(F)F)n(C)n2)C(C(=O)Nc2cccc(F)c2C(F)(F)F)C1=O (racemic)', 'damage to plant, VERPE', 0);

Request: Look up damage to plant, VERPE: "CCn1nc([C@H]2CN(C)C(=O)[C@@H]2C(=O)Nc2cccc(F)c2F)c2ccc(F)cc21"
Response: 0

---

Test system: plants
Test: Test D pre-emergence, other plants of Tables D1 and D3
Assay type: in vivo
Settings: pre-emergence, rate 130, 20 DAA, 100=total damage, 0=no damage
Each item that follows carries a reported damage to plant, CHEAL.

Solved entries:
INSERT INTO results (molecule, system_name, result) VALUES
  ('CN1C[C@H](c2nn(C)c3c(F)cccc23)[C@@H](C(=O)Nc2cccc(F)c2F)C1=O', 'plants', 0),
  ('CN1CC(c2cc(C(F)(F)F)n(C)n2)C(C(=O)Nc2ccc(F)c(F)c2F)C1=O (racemic)', 'plants', 50),
  ('CN1CC(c2cc(C(F)(F)F)n(C)n2)C(C(=O)Nc2cccc(F)c2C(F)(F)F)C1=O (racemic)', 'plants', 0),
  ('CCn1nc([C@H]2CN(C)C(=O)[C@@H]2C(=O)Nc2cccc(F)c2F)c2cc(F)ccc21', 'plants', 0);

Request: Look up damage to plant, CHEAL: COc1c(F)cccc1NC(=O)C1C(=O)N(C)CC1c1cc(C(F)(F)F)n(C)n1 (racemic)
Response: 20

Request: Look up damage to plant, CHEAL: "CCn1nc([C@H]2CN(C)C(=O)[C@@H]2C(=O)Nc2cccc(F)c2F)c2c(F)cccc21"
Response: 0

Request: Look up damage to plant, CHEAL: CN1CC(c2cc(C(F)(F)F)n(C)n2)C(C(=O)Nc2ccccc2F)C1=O (racemic)
Response: 0

---

System: plants
Assay: Test D pre-emergence, other plants of Tables D1 and D3
Assay type: in vivo
Conditions: pre-emergence, rate 30, 20 DAA, 100=total damage, 0=no damage
reported-property: damage to plant, GALAP
Response field accepts a number only; no unit should be typed.

Solved entries:
INSERT INTO measurements (molecule, system_name, reported_property, numeric_readout) VALUES
  ('CCn1nc([C@H]2CN(C)C(=O)[C@@H]2C(=O)Nc2cccc(F)c2F)c2cc(F)ccc21 [Compound 8]', 'plants', 'damage to plant, GALAP', 0),
  ('COc1c(F)cccc1NC(=O)C1C(=O)N(C)CC1c1cc(C(F)(F)F)n(C)n1 (racemic) [Compound 18]', 'plants', 'damage to plant, GALAP', 0),
  ('CCn1nc([C@H]2CN(C)C(=O)[C@@H]2C(=O)Nc2cccc(F)c2F)c2c(F)cccc21 [Compound 7]', 'plants', 'damage to plant, GALAP', 0);

Next molecule, please.
Request: Look up damage to plant, GALAP: CCn1nc([C@H]2CN(C)C(=O)[C@@H]2C(=O)Nc2cccc(F)c2F)c2ccc(F)cc21 [Compound 4]
Response: 0
